test system: Fibroblast; assay: Incucyte cell viability with human fibroblast; type: toxicity, cell-based; settings: 12 h, 10 µM, compound concentration 10 uM, replicate number 2; also: unitless GR value; below 1 slowed growth and below 0 cell loss
Readout Label: Growth Rate
// return just the number, without any unit appended

Query (compound): Cc1ccc(NC(=O)c2ccc3c(c2)OCCO3)cc1NC(=O)c1ccc2nc(OCCN3CCCC3)ccc2c1 ; field requested: Growth Rate
-0.27

Query (compound): CS(=O)(=O)c1cc(C2(NC(=O)c3cncc4c3cnn4-c3ccc(F)cc3)CC2)ccn1 ; field requested: Growth Rate
0.97

Query (compound): CCOC(=O)Nc1ccc2c(c1)N(C(=O)CN(CC)CC)c1ccccc1CC2 ; field requested: Growth Rate
0.75

Query (compound): O=C(NCCS(=O)(=O)c1ccc(C(F)(F)F)cn1)c1ccc(Cl)cc1 ; field requested: Growth Rate
0.53

Query (compound): COc1cc2c(NC3CCN(C(C)C)CC3)nc(C3CCCCC3)nc2cc1OCCCN1CCCC1 ; field requested: Growth Rate
-0.48

Query (compound): Cc1cc(CN(CC(=O)Nc2ccc(Cl)cc2Cl)C2CCCCC2)ccc1OCC(=O)O ; field requested: Growth Rate
0.9

Query (compound): N[C@H](C(=O)O)[C@@H]1CC(Cl)=NO1 ; field requested: Growth Rate
0.4

Query (compound): C[C@H]1CN(C2COC2)CCN1c1ccc(Nc2cc(-c3ccnc(N4CCn5c(cc6c5CC(C)(C)C6)C4=O)c3CO)cn(C)c2=O)nc1 ; field requested: Growth Rate
0.46

Query (compound): Cc1cc(Cn2c(N3CC4(CNC4)C3)nc3cc(Cl)cc(N4CCN(C)CC4)c32)cc(C)c1F ; field requested: Growth Rate
0.21

Query (compound): CC#CC(=O)N1CCN(c2nc(-c3ccc(Oc4ccccc4)cc3)c(C(N)=O)s2)CC1 ; field requested: Growth Rate
0.22

Query (compound): Cc1c[nH]c(-c2cnc(NCCNc3ccc(C#N)cn3)nc2-c2ccc(Cl)cc2Cl)n1 ; field requested: Growth Rate
-0.19

Query (compound): CN1CC(=O)N(C)c2cnc(Nc3ccc(NC(=O)Nc4cccc(C(=O)O)c4)cc3)nc21 ; field requested: Growth Rate
0.81

Query (compound): C[C@@H]1CC(=O)N(C2CC2)N=C1c1ccc(NC(=O)N2Cc3ccncc3C2)cc1 ; field requested: Growth Rate
0.57

Query (compound): CC(C)c1ccc(/C=N/NC(=O)c2ccc(O)cc2)cc1 ; field requested: Growth Rate
0.42

Query (compound): O=C1CCC(N2Cc3cc(CNC(=O)C(F)(F)c4ccc(Cl)cc4)ccc3C2=O)C(=O)N1 (stereo unspecified) ; field requested: Growth Rate
0.51

Query (compound): CC(C)c1ccc(CC(=O)N[C@H](C)c2ccc(OCC(F)(F)F)cn2)cc1 [SUVECALTAMIDE] ; field requested: Growth Rate
0.94
